Test system: grass species: red millet, green foxtail, Japanese millet
Test: Greenhouse preemergence herbicide test, grasses
Assay type: in vivo, Panicum milliacem, Setaria viridis, Echinochloa frumentacea
Settings: pre-emergence, 336 h, 1.0 lb/A, two weeks after treatment
Method: To illustrate the preemergence herbicidal efficiency of the alkyl-substituted 2-chloro-N-propargylacetanilides of this invention, test formulations are prepared of each compound by mixing 20 ml of an acetone solution containing 0.125 g of chemical with 20 ml of water containing 0.01 g of Triton X-155 surfactant. The resultant formulations contain 3125 ppm of test compound, 50% by volume of acetone and 0.025% by weight of surfactant. […]

molecule | pest or weed control at 1120.85 g/ha (%)
C#CCN(C(=O)CCl)c1c(C)cccc1CC | 99
C#CCN(C(=O)CCl)c1ccccc1C | 90
C#CCN(C(=O)CCl)c1c(CC)cccc1C(C)C | 100
C#CCN(C(=O)CCl)c1c(C(C)C)cccc1C(C)C | 90
C#CCN(C(=O)CCl)c1c(C)cccc1C(C)C | 90
C#CCN(C(=O)CCl)c1ccccc1CC [Example 11, 2-Chloro-2'-ethyl-N-propargylacetanilide] | 95
C#CCN(C(=O)CCl)c1ccccc1C(C)C | 100
C#CCN(C(=O)CCl)c1c(CC)cccc1CC | 95

----------
test system: grass species: red millet, green foxtail, Japanese millet; test: Greenhouse preemergence herbicide test, grasses; type: in vivo, Panicum milliacem, Setaria viridis, Echinochloa frumentacea; conditions: pre-emergence, 336 h, 0.5 lb/A, two weeks after treatment

compound | subjectOfTest | endpointUnit | pest or weed control at 560.425 g/ha
C#CCN(C(=O)CCl)c1c(C(C)C)cccc1C(C)C | grass species: red millet, green foxtail, Japanese millet | % | 90
C#CCN(C(=O)CCl)c1c(C)cccc1C(C)C | grass species: red millet, green foxtail, Japanese millet | % | 70
C#CCN(C(=O)CCl)c1ccccc1C(C)C | grass species: red millet, green foxtail, Japanese millet | % | 90
C#CCN(C(=O)CCl)c1c(CC)cccc1C(C)C | grass species: red millet, green foxtail, Japanese millet | % | 80
C#CCN(C(=O)CCl)c1c(CC)cccc1CC | grass species: red millet, green foxtail, Japanese millet | % | 90
C#CCN(C(=O)CCl)c1ccccc1CC [Example 11, 2-Chloro-2'-ethyl-N-propargylacetanilide] | grass species: red millet, green foxtail, Japanese millet | % | 90
C#CCN(C(=O)CCl)c1ccccc1C | grass species: red millet, green foxtail, Japanese millet | % | 80
C#CCN(C(=O)CCl)c1c(C)cccc1CC | grass species: red millet, green foxtail, Japanese millet | % | 98

----------
test system: Cotton; experiment: Field preemergence test, phytotoxic effects on crop; assay type: in vivo, cotton (Coker 413); details: 1.0 lb/A
readoutKind: % Crop Kill, Cotton (%)

molecule | endpointUnit | result
C#CCN(C(=O)CCl)c1c(C)cccc1CC | % | 6
C#CCN(C(=O)CCl)c1c(CC)cccc1CC | % | 0
C#CCN(C(=O)CCl)c1ccccc1CC [Example 11, 2-Chloro-2'-ethyl-N-propargylacetanilide] | % | 10
C#CCN(C(=O)CCl)c1ccccc1C | % | 3

----------
# % Crop Kill, Corn annotations
system: Corn; test: Field preemergence test, phytotoxic effects on crop; type: in vivo, sweet corn; settings: 2.0 lb/A

compound | endpointUnit | % Crop Kill, Corn
C#CCN(C(=O)CCl)c1c(CC)cccc1CC [Example 9] | % | 3
C#CCN(C(=O)CCl)c1ccccc1CC [Example 11, 2-Chloro-2'-ethyl-N-propargylacetanilide] | % | 0
C#CCN(C(=O)CCl)c1ccccc1C [Example 10] | % | 0
C#CCN(C(=O)CCl)c1c(C)cccc1CC [Example 15] | % | 12

----------
test system: Prickly Sida; test: Field preemergence test, weed control; format: in vivo; settings: 2.0 lb/A, 3-4 weeks after planting
A collection of compounds and their measured % Weed Control, Prickly Sida

compound | endpointUnit | % Weed Control, Prickly Sida
C#CCN(C(=O)CCl)c1ccccc1CC [Example 11, 2-Chloro-2'-ethyl-N-propargylacetanilide] | % | 57
C#CCN(C(=O)CCl)c1c(CC)cccc1CC [Example 9] | % | 93
C#CCN(C(=O)CCl)c1ccccc1C [Example 10] | % | 25
C#CCN(C(=O)CCl)c1c(C)cccc1CC [Example 15] | % | 97

----------
system: Soybeans; experiment: Field preemergence test, phytotoxic effects on crop; assay type: in vivo, var. Davis; details: 2.0 lb/A

molecule | endpointUnit | % Crop Kill, Soybeans
C#CCN(C(=O)CCl)c1c(C)cccc1CC [Example 15] | % | 13
C#CCN(C(=O)CCl)c1ccccc1CC [Example 11, 2-Chloro-2'-ethyl-N-propargylacetanilide] | % | 3
C#CCN(C(=O)CCl)c1c(CC)cccc1CC [Example 9] | % | 0
C#CCN(C(=O)CCl)c1ccccc1C [Example 10] | % | 0

----------
test system: broadleaf species: pigweed, velvetleaf, morningglory; test: Greenhouse preemergence herbicide test, broadleaves; assay type: in vivo; conditions: 0.5 lb/A, two weeks after treatment, 20160 min

compound | subjectOfTest | % Control, Broadleaves
C#CCN(C(=O)CCl)c1c(CC)cccc1CC | broadleaf species: pigweed, velvetleaf, morningglory | 35%
C#CCN(C(=O)CCl)c1c(C)cccc1CC | broadleaf species: pigweed, velvetleaf, morningglory | 0%
C#CCN(C(=O)CCl)c1ccccc1C | broadleaf species: pigweed, velvetleaf, morningglory | 0%
C#CCN(C(=O)CCl)c1ccccc1CC [Example 11, 2-Chloro-2'-ethyl-N-propargylacetanilide] | broadleaf species: pigweed, velvetleaf, morningglory | 0%

----------
tested on: Goosegrass; assay: Field preemergence test, weed control; format: in vivo; conditions: 1.0 lb/A, 3-4 weeks after planting
readoutKind: % Weed Control, Goosegrass (%)

compound | result
C#CCN(C(=O)CCl)c1c(CC)cccc1CC | 100
C#CCN(C(=O)CCl)c1ccccc1C | 92
C#CCN(C(=O)CCl)c1c(C)cccc1CC | 100
C#CCN(C(=O)CCl)c1ccccc1CC [Example 11, 2-Chloro-2'-ethyl-N-propargylacetanilide] | 100

----------
tested on: broadleaf species: pigweed, velvetleaf, morningglory; assay: Greenhouse preemergence herbicide test, broadleaves; assay type: in vivo; conditions: 1.0 lb/A, two weeks after treatment, 20160 min
% Control, Broadleaves by entry:

compound | % Control, Broadleaves / %
C#CCN(C(=O)CCl)c1c(C)cccc1C(C)C | 0
C#CCN(C(=O)CCl)c1ccccc1C | 35
C#CCN(C(=O)CCl)c1c(C)cccc1CC | 35
C#CCN(C(=O)CCl)c1ccccc1CC [Example 11, 2-Chloro-2'-ethyl-N-propargylacetanilide] | 35
C#CCN(C(=O)CCl)c1ccccc1C(C)C | 0
C#CCN(C(=O)CCl)c1c(C(C)C)cccc1C(C)C | 0
C#CCN(C(=O)CCl)c1c(CC)cccc1C(C)C | 0
C#CCN(C(=O)CCl)c1c(CC)cccc1CC | 35

----------
Reported % Crop Kill, Cotton by item:
test system: Cotton; test: Field preemergence test, phytotoxic effects on crop; assay type: in vivo, cotton (Coker 413); settings: 2.0 lb/A

compound | % Crop Kill, Cotton
C#CCN(C(=O)CCl)c1c(C)cccc1CC | 13%
C#CCN(C(=O)CCl)c1ccccc1CC [Example 11, 2-Chloro-2'-ethyl-N-propargylacetanilide] | 18%
C#CCN(C(=O)CCl)c1ccccc1C | 3%
C#CCN(C(=O)CCl)c1c(CC)cccc1CC | 3%

----------
Entries annotated with measured % Weed Control, Redroot Pigweed
tested on: Redroot Pigweed; experiment: Field preemergence test, weed control; assay type: in vivo; settings: 0.25 lb/A, 3-4 weeks after planting

compound | % Weed Control, Redroot Pigweed
C#CCN(C(=O)CCl)c1c(C)cccc1CC | 65%
C#CCN(C(=O)CCl)c1c(CC)cccc1CC | 75%
C#CCN(C(=O)CCl)c1ccccc1CC [Example 11, 2-Chloro-2'-ethyl-N-propargylacetanilide] | 33%
C#CCN(C(=O)CCl)c1ccccc1C | 0%
